We begin with a simple list: items and their reported TGI.
Tested on: UACC-257 melanoma
TEST_SUMMARY: NCI tumour cell line growth inhibition, 48 h
Expressed in µM, but write only the number.

For orientation, consider the following solved cases.
ENTRY_SMILES: CC[C@H]1[C@@H]2C=C[C@@H]3[C@H]4C/C=C\C(=O)NCCC[C@@H]5NC(=O)/C(=C(O)/C=C/[C@@H]4C[C@@H]3[C@H]2C[C@H]1C)C5=O
MEASUREMENT_LABEL: TGI
ENDPOINT_RESULT: 3.49
--
ENTRY_SMILES: COc1cc2c3c(n(C)c(=O)c2cc1OC)-c1cc2c(cc1/C3=C\CN)OCO2
MEASUREMENT_LABEL: TGI
ENDPOINT_RESULT: 20.4
--
ENTRY_SMILES: Clc1ccc2[nH]cc(-c3nnnn3-c3ccccc3)c2c1
MEASUREMENT_LABEL: TGI
ENDPOINT_RESULT: 71

Proceeding to the next compound to report its TGI.
Recorded result, COc1ccc(-c2nc3ccc(-c4nc5ccc(N6CCN(c7ccccc7)CC6)cc5[nH]4)cc3[nH]2)cc1OC , TGI: 4.4

----------
We begin with a simple list: items and their reported TGI.
System: SK-MEL-2 melanoma
TEST_SUMMARY: NCI tumour cell line growth inhibition, 48 h
Expressed in µM, but write only the number.

For orientation, consider the following solved cases.
COMPOUND: N#CC(C(=O)C(=O)C(C#N)c1ccc(Br)cc1)c1ccc(Br)cc1 (stereo not given)
TGI (µM): 27.5

COMPOUND: CCCCCCOC(=O)/C=C/[C@]1(CO)C/C(=C/CC(C(C)C)C(C)C)C(=O)O1
TGI (µM): 30.7

COMPOUND: C=C(Cl)C(Br)(CCl)CCC(Br)C(C)(C)Cl (stereo not given)
TGI (µM): 7.42

COMPOUND: COc1ccc(S(=O)(=O)c2nnc(S(=O)(=O)Cc3ccccc3)s2)cc1
TGI (µM): 45.1

Recorded result, CCOC(=O)Nc1ccc(-c2nc(-c3cccc(OCCN4CCOCC4)c3)c(-c3ccnc(Br)c3)[nH]2)cc1 , TGI: 6.07

----------
We begin with a simple list: items and their reported TGI.
Tested on: HCT-116 colon
TEST_SUMMARY: NCI tumour cell line growth inhibition, 48 h
Expressed in µM, but write only the number.

For orientation, consider the following solved cases.
COMPOUND: O=C(Nc1nc(C23CC4CC(CC(C4)C2)C3)cs1)c1cc2ccc(O)cc2oc1=O
RESULT_UNITS: µM
ENDPOINT_RESULT: 25.6
//
COMPOUND: CC1OC(OC2C(O)COC(OC3C(C)OC(OC4C(OC(=O)[C@]56CCC(C)(C)C[C@@H]5C5=CCC7[C@@]8(C)C[C@H](O)[C@H](OC9OC(CO)C(O)C(O)C9O)[C@@](C)(CO)[C@@H]8CC[C@@]7(C)[C@]5(C)CC6)OCC(O)C4O)C(O)C3OC3OCC(O)(CO)C3O)C2O)C(O)C(O)C1O (stereo partly specified)
RESULT_UNITS: µM
ENDPOINT_RESULT: 30.6
//
COMPOUND: COc1cc(C2c3cc4c(cc3OC3(OC)COC(=O)C23)OCO4)cc(OC)c1OC(C)=O (stereo unspecified)
RESULT_UNITS: µM
ENDPOINT_RESULT: 38.7

Recorded result, Clc1ccc2[nH]cc(-c3nnnn3-c3ccccc3)c2c1 , TGI: 57.5

----------
System: NCI-H23 lung
TEST_SUMMARY: NCI tumour cell line growth inhibition, 48 h; in the data active means GI50 below about 0.43 µM; inactive means the rest
Could you please pick one outcome from this set? active, inactive

Completed entries (count: 6):
COMPOUND: CN(C)CC[PH+](c1ccccc1)c1ccccc1.CN(C)CC[PH+](c1ccccc1)c1ccccc1.[Cl-].[Pd+2]
GROUP: inactive

COMPOUND: COc1ccc(Nc2nnc(-c3cc(O)ccc3O)s2)cc1
GROUP: inactive

COMPOUND: C=C(C)[C@@H]1CC[C@]2(C)[C@H](CC=C3[C@@H]4CC(C)(C)CC[C@]4(C(N)=O)CC[C@]32C)[C@@]1(C)CCC#N
GROUP: inactive

COMPOUND: O=C1OCC2=C1C(c1cccc(Br)c1)c1cc3c(cc1N2CCO)CCC3 (centres undefined)
GROUP: active

COMPOUND: C=C(Cl)C(Br)(CCl)CCC(Br)C(C)(C)Cl (centres undefined)
GROUP: inactive

COMPOUND: Cc1nn(-c2ccc(Cl)cc2)c2nc3c(nc12)C(=O)c1ccccc1-3
GROUP: inactive

Inquiry: Look up the recorded call for CO/N=C(\COc1ccc2c(c1)oc(=O)c1cc(OC)ccc12)c1ccc(OC)cc1 in this test.
Reply text: inactive

Inquiry: Look up the recorded call for Nc1nc(/C=C\c2ccc([N+](=O)[O-])s2)nc(N2CCCC2)n1 in this test.
Reply text: inactive

Inquiry: Look up the recorded call for COc1c(OC[C@H](O)CN2CCOCC2)ccc2c3n(c(=NC(=O)c4cccnc4C)nc12)CCN3 in this test.
Reply text: inactive

----------
Tested on: HCC-2998 colon
TEST_SUMMARY: NCI tumour cell line growth inhibition, 48 h
MEASUREMENT_LABEL: TGI (µM)
Expressed in µM, but write only the number.

For orientation, consider the following solved cases.
COMPOUND: CC(C)Oc1ccc2cc(-c3nn(CC4CCNCC4)c4ncnc(N)c34)ccc2c1
TGT: HCC-2998 colon
TGI / µM: 24.6

COMPOUND: Cc1ccnc2[nH]c3ccccc3c(=O)c12
TGT: HCC-2998 colon
TGI / µM: 65

COMPOUND: CC(C)=CC[C@]12CCN[C@H]1N(S(=O)(=O)c1ccccc1)c1ccccc12
TGT: HCC-2998 colon
TGI / µM: 32.1

Recorded result, Cc1[nH]nc(C(F)(F)F)c1N=NN1CCOCC1 , TGI: 6.11

Recorded result, CC1OC(OC2C(O)COC(OC3C(C)OC(OC4C(OC(=O)[C@]56CCC(C)(C)C[C@@H]5C5=CCC7[C@@]8(C)C[C@H](O)[C@H](OC9OC(CO)C(O)C(O)C9O)[C@@](C)(CO)[C@@H]8CC[C@@]7(C)[C@]5(C)CC6)OCC(O)C4O)C(O)C3OC3OCC(O)(CO)C3O)C2O)C(O)C(O)C1O (some centres undefined) , TGI: 14.7

Recorded result, O=c1c(/C=C/c2c(O)ccc3ccccc23)nnc2sc(-c3cccc(Br)c3)nn12 , TGI: 89

Recorded result, O=C1/C(=C/c2ccccc2S)N=C(c2ccccc2)N1c1nc2c(Cl)cc(Cl)cc2s1 , TGI: 54.7

Recorded result, Cn1c(=O)c(-c2ccccc2)c(N=[N+]=[N-])c2ccccc21 , TGI: 47

Recorded result, COc1cccc2c1C(=O)c1c(O)c3c(c(O)c1C2=O)C[C@](O)(C(=O)CO)C[C@H]3O[C@@H]1C[C@@H](NC(=O)CCCCCN(C)C2(c3ccc(F)cc3)CC3CCC2C3)[C@H](O)[C@@H](C)O1 (some centres undefined) , TGI: 3.37

Recorded result, CC(=O)c1c(C)n([O-])c2cc(Cl)c(Cl)cc2[n+]1=O , TGI: 57.8

----------
We begin with a simple list: items and their reported TGI.
Test system: SK-MEL-28 melanoma
TEST_SUMMARY: NCI tumour cell line growth inhibition, 48 h

For orientation, consider the following solved cases.
COMPOUND: CO/N=C(\COc1ccc2c(c1)oc(=O)c1cc(OC)ccc12)c1ccc(OC)cc1
MEASUREMENT_LABEL: TGI
ENDPOINT_RESULT: > 100 µM
//
COMPOUND: N#CC(C(=O)C(=O)C(C#N)c1ccc(Br)cc1)c1ccc(Br)cc1 (stereo not drawn)
MEASUREMENT_LABEL: TGI
ENDPOINT_RESULT: 28.9 µM
//
COMPOUND: O=c1ccn([C@H]2CSC[C@@H](CO)C2)c(=O)[nH]1
MEASUREMENT_LABEL: TGI
ENDPOINT_RESULT: > 100 µM
//
COMPOUND: Oc1cccnc1[Se]
MEASUREMENT_LABEL: TGI
ENDPOINT_RESULT: > 100 µM
//
COMPOUND: O=C1C=CC(=O)c2cc3cc(CBr)ccc3cc21
MEASUREMENT_LABEL: TGI
ENDPOINT_RESULT: > 63.1 µM
//
COMPOUND: c1ccc(CCNc2ccccn2)nc1
MEASUREMENT_LABEL: TGI
ENDPOINT_RESULT: > 100 µM
//
COMPOUND: Cn1c(=O)n(C2(C)C[Se]C2)c2ccccc21
MEASUREMENT_LABEL: TGI
ENDPOINT_RESULT: > 100 µM

Proceeding to the next compound to report its TGI.
Recorded result, CCOC(=O)Nc1ccc(C)c(NC(=O)OCC)c1 , TGI: > 100 µM
